# SYSTEM UNDER TEST: 5-HT2A receptor (Rattus norvegicus, UniProt P14842)
# Construct: Brains were rapidly removed and placed on ice; from tissue; host or cells: Sprague–Dawley rat frontal cortex membranes
# Sequence (P14842 whole entry): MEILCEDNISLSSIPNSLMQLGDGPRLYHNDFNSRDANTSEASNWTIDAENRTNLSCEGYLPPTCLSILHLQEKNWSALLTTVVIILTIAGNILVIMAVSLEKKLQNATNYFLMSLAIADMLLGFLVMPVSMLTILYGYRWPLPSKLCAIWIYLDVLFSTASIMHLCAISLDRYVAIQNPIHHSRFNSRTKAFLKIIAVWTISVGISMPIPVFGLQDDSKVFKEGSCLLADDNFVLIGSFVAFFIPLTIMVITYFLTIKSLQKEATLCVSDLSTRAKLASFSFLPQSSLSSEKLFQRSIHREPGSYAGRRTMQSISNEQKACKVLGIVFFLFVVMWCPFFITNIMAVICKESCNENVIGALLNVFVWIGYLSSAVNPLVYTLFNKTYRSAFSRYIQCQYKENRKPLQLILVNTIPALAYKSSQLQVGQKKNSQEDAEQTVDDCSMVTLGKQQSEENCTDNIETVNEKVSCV
# METHOD: Competitive 5-HT2A binding assay with [3H]ketanserin, rat frontal cortex membranes
# CONDITION LABEL: 1 nM [3H]ketanserin, 95% CI in brackets, read-out: 5-HT2A Affinity Ki (nM, 95% CI)
MEASURE: Ki (nM)

Some compounds with recorded Ki:
COc1ccccc1N1CCN(CCCCOc2cc3oc(=O)cc(C)c3cc2C(C)=O)CC1 | 1420
CC(=O)c1cc2c(C)cc(=O)oc2cc1OCCCCN1CCN(c2ccccc2F)CC1 | 1470

a: CC(=O)c1cc2c(C)cc(=O)oc2cc1OCCCCN1CCN(c2ccccc2C#N)CC1
b: CC(=O)c1cc2c(C)cc(=O)oc2cc1OCCCCN1CCN(c2cccc(Cl)c2Cl)CC1
c: CC(=O)c1cc2c(C)cc(=O)oc2cc1OCCCCN1CCN(c2cc(C)ccc2C)CC1
d: CC(=O)c1cc2c(C)cc(=O)oc2cc1OCCCCN1CCN(c2cnccn2)CC1
-- ask Given 4 compounds, produce a descending ranking by Ki. The response must list the labels following the requested ordering.
-- reply d, c, b, a
